Let's look at some compounds and their measured logD.
- Method Summary: method code SF, from PMID: 17665861
- Test Conditions: pH 7.4
Reply briefly: the number, and no unit.

Past entries and their recorded results:
Compound: O=C1Nc2ccccc2C12SC1C(=NNC1c1ccccc1Cl)N2c1ccccc1 (centres undefined)
Assay Metric: logD
Observed Result: 1.22
//
Compound: O=C1Nc2ccccc2C12SC1C(=NNC1c1ccccc1Cl)N2c1cccc2ccccc12 (centres undefined)
Assay Metric: logD
Observed Result: 1.21
//
Compound: O=C1Nc2ccccc2C12SC1C(=NNC1c1ccccc1O)N2c1ccc(Br)cc1 (centres undefined)
Assay Metric: logD
Observed Result: 1.38

Moving on to another compound below.
*Q* What value of measured logD is listed for O=C1Nc2ccccc2C12SC1C(=NNC1c1ccccc1Cl)N2c1ccc(Cl)cc1 (centres undefined) ?
*A* 1.31

Data provenance is the SangsterLogP compilation.
